Listed next: entries and their corresponding Cell Viability 50 uM.
Test system: U2OS cell line
Experiment: Cell viability, U2OS cell line (Chikungunya screen)
Settings: 50 uM
property: Cell Viability 50 uM

| compound | property | result |
| --- | --- | --- |
| CCCCCCCNC(=O)ONc1ccn([C@@H]2O[C@H](CO)[C@H](O)C2O)c(=O)n1 (some centres unmarked) [drawing 85] | Cell Viability 50 uM | 96% ± 11% (n = 4) |
| O=c1nc(NO)c(F)cn1[C@@H]1O[C@H](CO)[C@H](O)C1O (some centres unmarked) [drawing 84] | Cell Viability 50 uM | 53% ± 2% (n = 4) |
| CCCCCCCOC(=O)ONc1ccn([C@@H]2O[C@H](CO)[C@H](O)C2O)c(=O)n1 (some centres unmarked) [drawing 82] | Cell Viability 50 uM | 78% ± 8% (n = 4) |
| O=c1nc(NO)ccn1[C@@H]1O[C@H](CO)[C@H](O)C1O (some centres unmarked) [drawing 81] | Cell Viability 50 uM | 79% ± 10% (n = 4) |
| CC(C)OC(=O)[C@H](C)NP(=O)(OC[C@H]1O[C@@H](n2ccc(NO)nc2=O)C(O)[C@H]1O)Oc1ccccc1 (some centres unmarked) [drawing 83] | Cell Viability 50 uM | 99% ± 8% (n = 4) |

----------
System: VEEV
Experiment: microbe, parasite or virus in culture
Assay type: cell-based
Details: Venezuelan equine encephalitis virus, Astrocyte; read-out: Viral Inh. 50 uM
property: inhibition at 50 µM (%)

| compound | quantitative_readout |
| --- | --- |
| CCCCCCCOC(=O)ONc1ccn([C@@H]2O[C@H](CO)[C@H](O)C2O)c(=O)n1 (stereo partly shown) [drawing 92] | 100 |
| CC(C)OC(=O)[C@H](C)NP(=O)(OC[C@H]1O[C@@H](n2ccc(NO)nc2=O)C(O)[C@H]1O)Oc1ccccc1 (stereo partly shown) [drawing 93] | 96 |
| CCCCCCCNC(=O)ONc1ccn([C@@H]2O[C@H](CO)[C@H](O)C2O)c(=O)n1 (stereo partly shown) [drawing 95] | 37 |
| O=c1nc(NO)ccn1[C@@H]1O[C@H](CO)[C@H](O)C1O (stereo partly shown) [drawing 91] | 100 |

----------
Tested on: VEE virus
Assay: organism not typed
Format: cell-based
Details: Vero

| compound | experimental_target | quantity_unit | EC50 |
| --- | --- | --- | --- |
| O=c1nc(NO)ccn1[C@@H]1O[C@H](CO)[C@H](O)C1O (stereo in doubt) [EIDD-01931] | VEE virus | nM | 1000 |

----------
Reported Cell Viability 50 uM by item:
System: Astrocytes
Settings: 50 uM

| compound | Cell Viability 50 uM |
| --- | --- |
| O=c1nc(NO)ccn1[C@@H]1O[C@H](CO)[C@H](O)C1O (stereo partly shown) [drawing 91] | 86% ± 5% (n = 3) |
| CC(C)OC(=O)[C@H](C)NP(=O)(OC[C@H]1O[C@@H](n2ccc(NO)nc2=O)C(O)[C@H]1O)Oc1ccccc1 (stereo partly shown) [drawing 93] | 100% ± 17% (n = 3) |
| CCCCCCCNC(=O)ONc1ccn([C@@H]2O[C@H](CO)[C@H](O)C2O)c(=O)n1 (stereo partly shown) [drawing 95] | 85% ± 19% (n = 3) |
| CCCCCCCOC(=O)ONc1ccn([C@@H]2O[C@H](CO)[C@H](O)C2O)c(=O)n1 (stereo partly shown) [drawing 92] | 94% ± 10% (n = 3) |

All values here come from patent US10874683B2.
